B1: TRAF3IP2 (parent)
chain: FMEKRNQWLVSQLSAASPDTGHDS

variants of: B1; experiment: protein stability index of a GFP-peptide fusion (GPS, HEK-293T) (PSI 1-6); higher = more stable; details: c terminus: a fixed tail appended;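 further: lentivirally expressed fusions sorted by FACS into six bins by GFP to DsRed ratio, PSI derived from sequencing read proportions per bin multiplied by bin number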
MEASURE_NAME: protein stability index
Please respond with just the number, no unit label.

Example entries and their recorded answers appear below.
VAR: G21K
protein stability index: 2.44
--
VAR: A15M
protein stability index: 1.7
--
VAR: K4N
protein stability index: 2.38
--
VAR: R5N
protein stability index: 1.98
--
VAR: S14Q
protein stability index: 2.57

`K4H` has a reported protein stability index of 2.16

protein stability index in this record for `A15C` : 2.38

The variant identified as `A15Q` registered its protein stability index at 2.34

Value of protein stability index reported for the variant `Q12V` is 1.53

Briefly, protein stability index measured for `G21H` : 2.2

Measured protein stability index, `Q12A` : 2.04

Record `V10I` , field protein stability index: 2.12

Sure, the documented protein stability index for `W8V` is 4.79

Quick note, protein stability index for `P18S` landed at 1.49

Lab book: protein stability index of `R5F` noted as 1.83

Lookup result for `T20M` ; measured protein stability index: 3.13
